Assay: probe aInhba binding on compound microarray – biochemical, small-molecule microarray, 635/667 nm fluorescence, primary screen (AID 1148);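 further: score merges 667nm spot fluorescence with signal-to-noise for antibody binding to printed compounds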
Settings: higher = more signal
Examples of compounds with documented composite z-score follow.
Format: numeric value only, no unit, no commentary.

Below, 2 compounds whose answers are already recorded.
• C#CCOC(=O)N[C@H](C=CCCCC)c1ccccc1 = 0.0714
• CN1C(=O)C2C=CC(C(O)c3ccc(F)cc3)N(N3CCCCC3)C2C1=O (stereo not given) = 0.838

// sample CCCC=C(CCC)[C@@H](NS(=O)(=O)c1cccc2cccnc12)c1ccc(C(=O)OC)cc1 , its composite z-score was 2.04

// sample CC(C)=CCCC(C)=CC(O)C1C=CC2C(=O)N(c3ccccc3)C(=O)C2N1Nc1ccc([N+](=O)[O-])cc1 (stereo not given) , its composite z-score was 0.077

// sample COCCCNC(=O)[C@]1(Cc2ccccc2CN=[N+]=[N-])N=C(c2ccc(OCCCO)cc2)O[C@@H]1c1ccccc1CN=[N+]=[N-] , its composite z-score was 0.648

// sample CC(C)CNC(=O)[C@@]1(c2ccc([N+](=O)[O-])cc2)CC(=O)N(C(C)C)[C@@H]1c1ccc(CO)cc1 , its composite z-score was -0.233

// sample COc1ccc([Si](C)(C)[C@H]2[C@H](CC(=O)N3CCC[C@H]3CO)O[C@@]3(C(=O)N(Cc4ccc(N5C(=O)c6cccc7cccc5c67)cc4)c4ccccc43)[C@@H]2C)cc1 , its composite z-score was 0.134

* * *

Examples of molecules with documented z-score follow.
Test: optical density change of DRC41 E. coli – strain DRC41, OD650, 24 h, E. coli filamentation project, primary screen (AID 1093);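 further: MC1000 strain lacking acrAB efflux and sulA so SOS filamentation is blocked; test concentration not given here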
Settings: E. coli DRC41 growth, higher = more signal, called active from +8 up or from −8 down
Format: numeric value only, no unit, no commentary.

Below, 5 molecules whose answers are already recorded.
- COCCCNC(=O)[C@]1(Cc2ccccc2CN=[N+]=[N-])N=C(c2ccc(OCCCO)cc2)O[C@@H]1c1ccccc1CN=[N+]=[N-]: 0.378
- C=C(C(=O)CC[C@H](OC(=O)c1cccnc1)c1ccc(OCCO)cc1)C(C)C: -0.388
- N#Cc1ccc(NN2C(C(O)c3ccccc3)C=CC3C(=O)N(c4ccccc4)C(=O)C32)cc1 (stereo unspecified): -0.676
- C=CCNC(=O)[C@H]1[C@@H]2C(=O)O[C@@H](c3ccccc3)[C@@H](c3ccccc3)N2[C@@H](c2ccc(O)cc2)[C@]12C(=O)N(C(=O)OCCOC)c1ccc(C#CC3(O)CCCCCC3)cc12: 1.87
- NC(=O)NCC#Cc1ccc2c(c1)[C@]1(C(=O)N2)[C@H](c2ccc(O)cc2)N2[C@H](c3ccccc3)[C@H](c3ccccc3)OC(=O)[C@H]2[C@@H]1C(=O)NC[C@H](O)c1ccccc1: 0.821

// sample COCCOC(=O)N1C(=O)[C@@]2(c3cc(C#CC4(O)CCCCCC4)ccc31)[C@H](C(=O)N1CCc3cc(OC)c(OC)cc3C1)[C@H]1C(=O)O[C@H](c3ccccc3)[C@H](c3ccccc3)N1[C@@H]2c1ccccc1OCCO , its z-score was 1.36

* * *

Examples of compounds with documented z-score follow.
Assay: JC-1 mitochondrial signal, unstimulated HepG2 cells – cell-based, JC-1 fluorescence, 24 h, 100 nL compound, profiling panel (AID 1167); further: test concentration not given here
Conditions: HepG2 mitochondrial potential, higher = more signal
Format: numeric value only, no unit, no commentary.

Below, 2 compounds whose answers are already recorded.
- CC(C)NC(=O)[C@@H]1c2ccccc2C(=O)N(Cc2cc(C(F)(F)F)cc(C(F)(F)F)c2)[C@H]1c1ccc(CO)cc1: 0.571
- O=C1O[C@H](c2ccccc2)[C@H](c2ccccc2)N2[C@H]1[C@@H](C(=O)N1CCN(c3ncccn3)CC1)[C@]1(C(=O)Nc3ccc(C#CCCO)cc31)[C@H]2c1ccc(OCCO)cc1: -0.838

Next, consider the following compound.
// sample COC(=O)C(CC#Cc1ccc2c(c1)[C@]1(C(=O)N2)[C@H](c2ccc(O)cc2)N2[C@H](c3ccccc3)[C@H](c3ccccc3)OC(=O)[C@H]2[C@@H]1C(=O)O)C(=O)OC , its z-score was -0.141

* * *

Examples of compounds with documented composite z-score follow.
Molecular target: Concanavalin-A (Canavalia ensiformis) (UniProt P02866)
Sequence (P02866 whole entry, looked up): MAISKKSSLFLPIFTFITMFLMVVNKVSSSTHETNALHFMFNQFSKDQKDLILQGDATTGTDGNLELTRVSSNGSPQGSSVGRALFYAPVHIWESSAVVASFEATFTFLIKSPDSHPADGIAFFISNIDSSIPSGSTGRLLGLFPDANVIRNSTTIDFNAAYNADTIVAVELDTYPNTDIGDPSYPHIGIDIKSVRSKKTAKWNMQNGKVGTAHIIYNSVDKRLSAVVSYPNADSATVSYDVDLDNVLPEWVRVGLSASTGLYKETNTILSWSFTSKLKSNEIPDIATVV
Assay: compounds binding concanavalin A lectin – biochemical, small-molecule microarray, Alexa647 label, 635 nm, artefact control for SMM control protein annotation, primary screen (AID 1127);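 further: z combines 667 nm emission intensity with signal-to-noise across three replicate slides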
Details: ConA-A647 binding fluorescence, higher = more signal
Format: numeric value only, no unit, no commentary.

Below, 3 compounds whose answers are already recorded.
- C=C(/C(=C/C[C@@H](OC(C)=O)c1ccccc1OCCO)c1cnc2ccccc2c1)C(C)C: 0.871
- C=C[C@H](C)[C@H](OC(=O)Nc1ccc(SC)cc1)c1ccc(O)c2ccccc12: -0.252
- CCOC(=O)C[C@H]1[C@H](OC(=O)Cc2ccc3c(c2)OCO3)[C@@H](NC(=O)c2ccccc2)c2cc(OCCCO)ccc2N1C(=O)c1ccccc1: 0.374

// sample CC(C)CNC(=O)[C@@]1(c2ccc([N+](=O)[O-])cc2)CC(=O)N(C(C)C)[C@@H]1c1ccc(CO)cc1 , its composite z-score was 0.0801

// sample COCCCNC(=O)[C@@H]1c2ccccc2C(=O)N(Cc2cc(F)cc(C(F)(F)F)c2)[C@H]1c1ccc(CO)cc1 , its composite z-score was -0.265

// sample COC(=O)[C@]1(Cc2ccccc2N=[N+]=[N-])N=C(c2ccc(OCCCO)cc2)O[C@@H]1c1ccccc1 , its composite z-score was 0.458

// sample COC(=O)[C@@]1(Cc2ccc(OC)cc2)[C@H]2c3cc(C(=O)N4CCCC4)n(Cc4ccc(C)o4)c3C[C@H]2CN1C(=O)c1ccccc1 , its composite z-score was 0.88

// sample [N-]=[N+]=Nc1ccccc1C[C@]1(C(=O)NCCN2CCOCC2)N=C(c2ccc(OCCCO)cc2)O[C@H]1c1ccccc1N=[N+]=[N-] , its composite z-score was 1.15

* * *

Biological target: Left-right determination factor 2 (Homo sapiens)
Test: small molecules binding LEFTY2 protein – biochemical, small-molecule microarray, 635 nm fluorescence scan, primary screen (AID 1110)
Conditions: higher = more signal
Examples of compounds with documented composite z-score follow.
Format: numeric value only, no unit, no commentary.

Below, 5 compounds whose answers are already recorded.
* C=CCOC(=O)[C@H]1[C@@H]2C(=O)O[C@@H](c3ccccc3)[C@@H](c3ccccc3)N2[C@@H](c2ccc(OCCOC(=O)[C@H]3C[C@H]4C(=O)N[C@@H](CCCCN(C)C)C(=O)N4[C@H]3c3ccc(O)cc3)cc2)[C@]12C(=O)Nc1ccccc12 | 0.823
* CN1C(=O)C2C=CC(C(O)COCc3ccccc3)N(Nc3ccccc3)C2C1=O (configuration not stated) | 0.0615
* COCCCNC(=O)[C@@]1(Cc2ccccc2I)c2ccccc2C(=O)N(Cc2ccccc2Cl)[C@H]1c1ccc(CO)cc1 | 0.365
* C[N+](C)(C)CCCCCCNC(=O)[C@H]1C[C@H]2C(=O)N3CCC[C@H]3C(=O)N2[C@H]1c1cccc(OCCO)c1 | 1.46
* O=C1C[C@@](C(=O)O)(c2ccc([N+](=O)[O-])cc2)[C@@H](c2ccc(CO)cc2)N1CC12CC3CC(CC(C3)C1)C2 | 0.408

// sample O=C1C2C=CC(C(O)c3cccc4ccccc34)N(Nc3ccccc3)C2C(=O)N1c1ccccc1 (configuration not stated) , its composite z-score was 0.321

// sample CN(C)C(=O)[C@@]1(CCS(=O)(=O)c2ccccc2)N=C(c2ccc(OCCCO)cc2)O[C@H]1c1ccccc1CN=[N+]=[N-] , its composite z-score was 0.446

* * *

System: Inhibin beta A chain (activin A)
Assay: small molecules binding activin A – biochemical, small-molecule microarray, 635 nm fluorescence scan, primary screen (AID 1107);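 further: mouse activin A protein probed at 4.33 µg/mL on printed slides; score merges bound-protein fluorescence near 667 nm with spot signal-to-noise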
Conditions: INHBA, higher = more signal
Returns the class for an entry based on its composite z-score. Class ranges: category 1 (below 0.5), category 2 (0.5 to below 1), category 3 (1 or more)

Some solved cases for reference:
- CC(C)C(CO)N1C(=O)[C@@H]2[C@H]3C(=O)OCC=C[C@H]3OC23C=CCN(CCN2CCOCC2)C(=O)[C@@H]13 (some centres not stated): category 2
- COc1ccc([Si](C)(C)[C@H]2[C@H](CCO)O[C@@]3(C(=O)N(Cc4cccc(N5CCOC5=O)c4)c4ccccc43)[C@@H]2C)cc1: category 1
- COC(=O)[C@]1(Cc2ccccc2CN=[N+]=[N-])N=C(c2ccc(OCCCO)cc2)O[C@@H]1c1ccccc1: category 2
- C=CCC(OC(C)=O)[C@@H]1[C@@H](N(Cc2ccc(-c3ccccc3)cc2)C(=O)c2cccc3ccccc23)c2cc(OCCCO)ccc2N1C(=O)c1ccc2ccccc2n1 (some centres not stated): category 3
- C=CCC(OC(C)=O)[C@@H]1[C@@H](N(Cc2cccc3ccccc23)C(=O)c2ccc(C)cc2)c2cc(OCCCO)ccc2N1C(=O)c1ccc2ccccc2c1 (some centres not stated): category 3
- CC(C)C[C@@H]1NC(=O)[C@@]23C(=O)N[C@@H](Cc4ccccc4)C2[C@H](C)[C@@]2(C)O[C@H]2C3/C=C/C/C=C\CNC(=O)[C@@H]2CCCN2C1=O (some centres not stated): category 3
- O=C1NC(=O)C2C1C=CC(C(O)c1ccc3c(c1)OCO3)N2Nc1ccc(Cl)cc1Cl (configuration not stated): category 3
- COCCCNC(=O)[C@@]1(C)c2ccccc2C(=O)N(c2ccc(C)cn2)[C@H]1c1ccc(CO)cc1: category 2
- C=CCC(OC(C)=O)[C@@H]1[C@@H](N(Cc2ccc(-c3ccccc3)cc2)C(=O)Cc2ccc(OC)cc2)c2cc(OCCCO)ccc2N1C(=O)c1ccc(-c2ccccc2)cc1 (some centres not stated): category 3
- O=C1c2ccccc2[C@](Cc2ccccc2I)(C(=O)NCC(F)(F)F)[C@H](c2ccc(CO)cc2)N1Cc1ccccc1: category 2

input: Class label required: [N-]=[N+]=NCc1ccccc1[C@H]1OC(c2ccc(OCCCO)cc2)=N[C@@]1(Cc1ccccc1N=[N+]=[N-])C(=O)N1CCCCC1
output: category 3

input: Class label required: CCOC(=O)C1=CC[C@@H](c2ccc(N(CC)CC)cc2)N(S(=O)(=O)c2ccc(C)cc2)[C@H]1c1ccc([N+](=O)[O-])cc1
output: category 3

input: Class label required: CC(C)(C)OC(=O)CC[C@]1(C(=O)N2CCCCC2)N=C(c2ccc(OCCCO)cc2)O[C@H]1c1ccccc1CN=[N+]=[N-]
output: category 3

input: Class label required: O=C1C[C@@](C(=O)NCc2ccccc2)(c2ccc([N+](=O)[O-])cc2)[C@@H](c2ccc(CO)cc2I)N1C1CCCCC1
output: category 2

input: Class label required: C=CC[C@]1(C(=O)N2CCOCC2)N=C(c2ccc(OCCCO)cc2)O[C@H]1c1ccccc1CN=[N+]=[N-]
output: category 2
